# Assay Target: human mGluR5 (Homo sapiens, UniProt P41594)
# Construct: expressed in transfected cells; host or cells: HEK293 cells stably expressing rat GLAST (EAAT1), stably transfected with pcDNAzeo3.1 carrying synthetic human mGluR5 DNA; zeocin-selected single clones
# Sequence (P41594 21-1212): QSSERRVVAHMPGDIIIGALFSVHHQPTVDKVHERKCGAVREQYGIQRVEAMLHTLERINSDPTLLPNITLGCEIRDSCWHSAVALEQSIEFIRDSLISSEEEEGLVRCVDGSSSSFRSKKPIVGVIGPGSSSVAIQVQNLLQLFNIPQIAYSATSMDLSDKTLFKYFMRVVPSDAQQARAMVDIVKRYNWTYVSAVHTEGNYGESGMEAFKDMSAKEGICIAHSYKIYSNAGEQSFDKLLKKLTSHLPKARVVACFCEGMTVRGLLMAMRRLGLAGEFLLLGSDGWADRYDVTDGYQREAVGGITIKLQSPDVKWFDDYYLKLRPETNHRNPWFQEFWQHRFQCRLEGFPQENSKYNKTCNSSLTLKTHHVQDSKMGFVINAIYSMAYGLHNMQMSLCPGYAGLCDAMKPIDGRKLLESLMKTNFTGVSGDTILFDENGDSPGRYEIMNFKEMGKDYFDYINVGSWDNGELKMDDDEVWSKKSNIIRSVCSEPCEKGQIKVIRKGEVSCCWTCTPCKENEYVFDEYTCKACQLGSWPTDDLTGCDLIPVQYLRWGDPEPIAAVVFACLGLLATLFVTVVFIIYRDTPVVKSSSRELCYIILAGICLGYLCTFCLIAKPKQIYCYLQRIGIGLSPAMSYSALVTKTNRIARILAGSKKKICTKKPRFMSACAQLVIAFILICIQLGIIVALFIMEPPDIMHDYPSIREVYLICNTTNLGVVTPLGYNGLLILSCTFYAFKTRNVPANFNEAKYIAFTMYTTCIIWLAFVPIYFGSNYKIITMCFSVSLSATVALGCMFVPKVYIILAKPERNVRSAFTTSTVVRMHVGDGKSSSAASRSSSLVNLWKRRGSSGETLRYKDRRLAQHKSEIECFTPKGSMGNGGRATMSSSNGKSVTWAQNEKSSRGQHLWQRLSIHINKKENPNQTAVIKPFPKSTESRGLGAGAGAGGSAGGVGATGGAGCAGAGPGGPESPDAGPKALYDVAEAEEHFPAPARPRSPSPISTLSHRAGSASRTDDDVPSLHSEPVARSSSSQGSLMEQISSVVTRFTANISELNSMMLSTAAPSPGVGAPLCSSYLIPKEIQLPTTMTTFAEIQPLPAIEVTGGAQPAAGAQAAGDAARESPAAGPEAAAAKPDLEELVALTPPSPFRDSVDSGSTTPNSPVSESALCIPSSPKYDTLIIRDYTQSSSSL
# Experimental Protocol: In vitro cell-based FLIPR calcium assay for positive modulation of the activation of mGluR5 by glutamate (PAM EC50)
# Cond: HEK293/GLAST cells expressing recombinant human mGluR5; FLIPR calcium signal; glutamate added at its EC20; read-out: mGluR5 PAM EC50
pEC50: −log10 of the molar value.
Experimental Endpoint: pEC50

Reference set (3 entries):
>>> value("O=c1c2ccc(C#Cc3cccnc3)cc2nc2n1CC1CCCN1C2 (stereo not shown)")
"7.00 to 7.52"
>>> value("O=c1c2ccc(C#Cc3ccccn3)cc2nc2n1C1CCC2C1 (stereo not shown)")
"7.52 to 8.00"
>>> value("CN1CCCCC12Cc1nc3cc(C#Cc4cccc(F)c4)ccc3c(=O)n1C2 (stereo not shown)")
"6.52 to 7.00"

Next, consider the following molecule.
Request: Give the reported value of pEC50 for this record: O=c1c2ccc(C#Cc3cccc(F)c3)cc2nc2n1CC(O)CC2 (stereo not shown)
Response: 7.00 to 7.52

###

Entries and their measured EC50 follow.
# Assay Target: human mGluR5 (Homo sapiens, UniProt P41594)
# Construct: expressed in transfected cells; host or cells: HEK293 cells stably expressing rat GLAST (EAAT1), stably transfected with pcDNAzeo3.1 carrying synthetic human mGluR5 DNA; zeocin-selected single clones
# Experimental Protocol: In vitro cell-based FLIPR calcium assay for positive modulation of the activation of mGluR5 by glutamate (PAM EC50)
# Cond: HEK293/GLAST cells expressing recombinant human mGluR5; FLIPR calcium signal; glutamate added at its EC20; read-out: mGluR5 PAM EC50

Reference set (4 entries):
>>> value("COCc1cnc2cc(C#Cc3cccc(F)c3)ccn2c1=O")
"30 to 100 nM"
>>> value("C=CCN1CCc2nc3cc(C#Cc4cccc(F)c4)ccc3c(=O)n2CC1")
"10 to 30 nM"
>>> value("O=C(Cc1ccccc1)c1ccc2c(=O)n3c(nc2c1)CCCCC3")
"100 to 300 nM"
>>> value("CN(C)Cc1nc2cc(C#Cc3cccc(F)c3)ccc2c(=O)n1C")
"30 to 100 nM"

Request: Give the reported value of EC50 for this record: CN1CCOCC1c1nc2cc(C#Cc3cccc(F)c3)ccc2c(=O)n1C (stereo not drawn)
Response: < 10 nM

Request: Give the reported value of EC50 for this record: CC1Cn2c(nc3cc(C#Cc4ccccn4)ccc3c2=O)CCN1C (stereo not drawn)
Response: 100 to 300 nM

###

# Assay Target: human mGluR5 (Homo sapiens)
# Construct: expressed in transfected cells; host or cells: HEK293 cells stably expressing rat GLAST (EAAT1), stably transfected with pcDNAzeo3.1 carrying synthetic human mGluR5 DNA; zeocin-selected single clones
# Experimental Protocol: In vitro cell-based FLIPR calcium assay for positive modulation of the activation of mGluR5 by glutamate (PAM EC50)
# Cond: HEK293/GLAST cells expressing recombinant human mGluR5; FLIPR calcium signal; glutamate added at its EC20; read-out: mGluR5 PAM EC50
# Source text: The DNA sequences encoding the structural regions for rat mGluR5 [Abe T, Sugihara H, Nawa H, Shigemoto R, Mizuno N, Nakanishi S (1992) “Molecular characterization of a novel metabotropic glutamate receptor mGluR5 coupled to inositol phosphate/Ca^2+ signal transduction” Journal of Biological Chemistry vol. 267, no. […]
Entries and their measured EC50 follow.

Reference set (2 entries):
>>> value("O=c1c2ccc(C#Cc3ccc(F)cc3)cc2ncn1C1CCCC1")
"30 to 100 nM"
>>> value("O=c1c2ccc(C#Cc3ccccc3F)cc2nc2n1CCC1(CC2)OCCO1")
"30 to 100 nM"

Request: Give the reported value of EC50 for this record: CCc1ccc(C#Cc2ccc3c(=O)n4c(nc3c2)CCCCC4)cc1
Response: 100 to 300 nM
